Taken from the supplement of paper PMC10981050.

Tested on: MARIMO;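 also: after 48 h exposure read by CellTiter-Glo luminescence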
Assay: cell viability relative to vehicle control; higher = less cytotoxic
Settings: 10 µM; SRSF2 genotype: SRSF2 P95H/wt
Where a name gives a salt, the structure may show the parent alone.
measurement.kind: cell viability (%)
Answers are plain numbers, in %.

// solved cases for cell viability follow
# compound, result
rows = [
    ("CO[C@@]1(NC(=O)CSC[C@@H](N)C(=O)O)C(=O)N2C(C(=O)O)=C(CSc3nnnn3C)CS[C@@H]21 [Cefminox Sodium]", 105),
    ("CS(=O)(=O)n1cc2c(n1)CN([C@H]1CO[C@H](c3cc(F)ccc3F)[C@@H](N)C1)C2 [Omarigliptin (MK-3102)]", 99.2),
    ("CNc1nc(Nc2cn(C(C)(C)C#N)nc2C)ncc1C(F)(F)F", 101),
    ("CN(CCNc1ccnc2cc(Cl)ccc12)CCNc1ccnc2cc(Cl)ccc12", 19.4),
    ("Cc1nc2ccc(NC(=O)Nc3ccnc4cccnc34)cc2o1", 96.4),
]

List reported cell viability for each of these compounds:
1. CN(CCOc1ccc(NS(C)(=O)=O)cc1)CCc1ccc(NS(C)(=O)=O)cc1 [Dofetilide (Tikosyn)]
2. CO/N=C(\C(=O)N[C@@H]1C(=O)N2C(C(=O)OC(C)OC(C)=O)=C(COC(N)=O)CS[C@H]12)c1ccco1 (some centres not stated) [Cefuroxime axetil]
3. C[C@@H]1CC[C@@]2(OC1)O[C@H]1C[C@H]3[C@@H]4CC=C5C[C@@H](O[C@@H]6O[C@H](CO)[C@@H](O[C@@H]7O[C@@H](CO)[C@H](O)[C@H]7O)[C@H](O)[C@H]6O[C@@H]6O[C@@H](C)[C@H](O)[C@@H](O)[C@H]6O)CC[C@]5(C)[C@H]4CC[C@]3(C)[C@H]1[C@@H]2C [Polyphyllin I]
4. C=C(C)[C@@H]1CC[C@]2(C(=O)O)CC[C@]3(C)[C@H](CC[C@@H]4[C@@]5(C)CC[C@H](OC(=O)CC(C)(C)C(=O)O)C(C)(C)[C@@H]5CC[C@]43C)[C@@H]12 [Bevirimat]
5. N#Cc1ccc(C(c2ccc(C#N)cc2)n2cncn2)cc1 [Letrozole]

1. 97
2. 99.6
3. 0.37
4. 107
5. 91.9

List reported cell viability for each of these compounds:
1. CC12CCC(O)CC1=CCC1C2CCC2(C)C(C(O)CC(O)(C(F)(F)F)C(F)(F)F)CCC12 (configuration not stated)
2. N[C@@H]1CN(c2c(F)cc3c(=O)c(C(=O)O)cn([C@@H]4C[C@@H]4F)c3c2Cl)CC12CC2 [Sitafloxacin hydrate]
3. Cc1cc(Nc2cc(N3CCN(C)CC3)nc(Sc3ccc(NC(=O)C4CC4)cc3)n2)n[nH]1 [VX-680 (MK-0457, Tozasertib)]
4. CC(C)[C@H](N)C(=O)OCCOCn1cnc2c(=O)nc(N)[nH]c21 [Valaciclovir HCl]

97
104
53.6
101

List reported cell viability for each of these compounds:
1. C[C@H](Nc1ncnc2[nH]cnc12)c1cc2ccc(F)cc2nc1-c1ccccn1
2. C[C@@H](Oc1cc(-n2cnc3ccc(CN4CCN(C)CC4)cc32)sc1C(N)=O)c1ccccc1C(F)(F)F
3. NNC(=O)c1ccncc1.Nc1ccc(C(=O)O)c(O)c1 [pasiniazid]

81.5
35.9
106

List reported cell viability for each of these compounds:
1. CCn1c2ccccc2c2cc(CNCc3ccccc3OC)ccc21 [HLCL-61 hydrochloride]
2. C=C1CCC2C(C)(CO)C(O)CCC2(C)C1CC=C1C=COC1=O (configuration not stated) [Dehydroandrographolide]
3. CC(C)c1cc2c(cc1S(=O)(=O)O)[C@@]1(C)CCC[C@@](C)(C(=O)O)[C@@H]1CC2 [Ecabet sodium]
4. CC(=O)OCOC(=O)CN(CC(=O)OCOC(C)=O)c1ccccc1OCCOc1ccccc1N(CC(=O)OCOC(C)=O)CC(=O)OCOC(C)=O
5. CC[N+](CC)(CC)CCOc1cccc(OCC[N+](CC)(CC)CC)c1OCC[N+](CC)(CC)CC [Gallamine triethiodide (Flaxedil)]

1. 73.9
2. 77.8
3. 96.6
4. 1.03
5. 101
